# MEASUREMENT PROTOCOL: melting temperature; fluorescence melt of hairpins on a sequencing array, two-state fit, raised by 9.35 °C to match UV melts
# ASSAY CONDITIONS: sodium 0.088 M
Given measured Tm, output Satisfied if it is greater than or equal to 40 °C and Not satisfied if not.

[
  {
    "SEQUENCE STRING": "GGGGACGAAAGTCGCCCC ((((((....)))..)))",
    "ASSIGNED CLASS": "Satisfied"
  },
  {
    "SEQUENCE STRING": "GTTGGACGAAAGTCAAAC (((.(((....))).)))",
    "ASSIGNED CLASS": "Satisfied"
  },
  {
    "SEQUENCE STRING": "GCGCCTACGAAAGTACGC (((..(((....))))))",
    "ASSIGNED CLASS": "Satisfied"
  },
  {
    "SEQUENCE STRING": "GGTCGTCGAAAGACACC (((.(((....))))))",
    "ASSIGNED CLASS": "Satisfied"
  },
  {
    "SEQUENCE STRING": "GATCCACGAAAGTGCATC (((.(((....))).)))",
    "ASSIGNED CLASS": "Not satisfied"
  },
  {
    "SEQUENCE STRING": "CGGTACGGAAACGTCCG (((.(((....))))))",
    "ASSIGNED CLASS": "Satisfied"
  },
  {
    "SEQUENCE STRING": "GATCCATATTGGATC ((((((...))))))",
    "ASSIGNED CLASS": "Satisfied"
  },
  {
    "SEQUENCE STRING": "GTTGATCCGAAAGGAAAC (((..(((....))))))",
    "ASSIGNED CLASS": "Not satisfied"
  },
  {
    "SEQUENCE STRING": "GCTTCCGAAAGGAGTAGC ((((((....)))..)))",
    "ASSIGNED CLASS": "Satisfied"
  },
  {
    "SEQUENCE STRING": "CGCGCGGAAACGCTCGCG ((((((....)))..)))",
    "ASSIGNED CLASS": "Satisfied"
  },
  {
    "SEQUENCE STRING": "CGTGCGGAAACGCAACG ((((((....))).)))",
    "ASSIGNED CLASS": "Satisfied"
  },
  {
    "SEQUENCE STRING": "GTGACGGGAAACTGTCGC (.(((.(....).))).)",
    "ASSIGNED CLASS": "Satisfied"
  },
  {
    "SEQUENCE STRING": "CGCTTGCGGAAACGCGCG (((..(((....))))))",
    "ASSIGNED CLASS": "Satisfied"
  }
]
